Assay: Pharmacokinetics after IV and oral administration to rats
Type: in vivo
Conditions: rat, in vivo, oral 10 mg/kg
quantity: AUC(0-inf) (ng·h/mL)
Numeric only. Scale: ng·h/mL

Report measured AUC(0-inf); entry is `Oc1cc(-c2ccccc2)nn1-c1ccccn1`
302

* * *

Experiment: Pharmacokinetics after IV and oral administration to rats
Format: in vivo
Conditions: rat, in vivo, IV 1 mg/kg
quantity: half-life (h)
Numeric only. Scale: h

Report measured half-life; entry is `Oc1cc(-c2ccccc2)nn1-c1ccccn1`
1.43

* * *

Target: human Nox2 (Homo sapiens, UniProt P04839)
Sequence (P04839 2-570 limits assumed): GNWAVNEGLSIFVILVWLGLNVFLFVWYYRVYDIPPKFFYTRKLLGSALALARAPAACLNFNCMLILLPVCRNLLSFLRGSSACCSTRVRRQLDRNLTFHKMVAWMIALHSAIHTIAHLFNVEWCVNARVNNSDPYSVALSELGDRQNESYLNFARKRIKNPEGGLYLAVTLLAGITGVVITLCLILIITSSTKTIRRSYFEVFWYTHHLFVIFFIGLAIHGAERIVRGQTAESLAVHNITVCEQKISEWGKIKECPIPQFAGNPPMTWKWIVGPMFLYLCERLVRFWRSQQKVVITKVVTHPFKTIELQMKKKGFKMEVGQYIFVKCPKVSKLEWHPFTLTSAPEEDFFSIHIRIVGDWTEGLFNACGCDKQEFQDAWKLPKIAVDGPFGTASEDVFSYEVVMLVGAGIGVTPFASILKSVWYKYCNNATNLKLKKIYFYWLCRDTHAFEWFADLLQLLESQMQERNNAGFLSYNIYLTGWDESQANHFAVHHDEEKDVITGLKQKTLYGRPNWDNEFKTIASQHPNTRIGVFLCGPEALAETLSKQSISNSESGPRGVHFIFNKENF
quantity: Ki
Hey, just the number and the unit after it is fine.

Provide the reported Ki (system: human Nox2 (Homo sapiens, UniProt P04839)) for Oc1cc(-c2ccccc2)nn1-c1ccccn1 [Ewha-89403]
2570 nM

* * *

Assay: Pharmacokinetics after IV and oral administration to rats
Format: in vivo
Conditions: rat, in vivo, IV 2 mg/kg
quantity: half-life

Report measured half-life; entry is `CCCc1c(-c2ccccc2)nn(-c2ccccn2)c1O`
4.07 h

* * *

Assay: Pharmacokinetics after IV and oral administration to rats
Type: in vivo
Conditions: rat, in vivo, oral 20 mg/kg
quantity: AUC(0-inf) (ng·h/mL)
Numeric only. Scale: ng·h/mL

Report measured AUC(0-inf); entry is CCCc1c(-c2ccccc2)nn(-c2ccccn2)c1O [Ewha-18278]
14400

* * *

Assay: Pharmacokinetics after IV and oral administration to rats
Format: in vivo
Details: rat, in vivo, IV 2 mg/kg
quantity: AUC(0-inf) (ng·h/mL)
Numeric only. Scale: ng·h/mL

Report measured AUC(0-inf); entry is `CCCc1c(-c2ccccc2)nn(-c2ccccn2)c1O`
2150

* * *

Test: Pharmacokinetics after IV and oral administration to rats
Assay type: in vivo
Conditions: rat, in vivo, oral 20 mg/kg
quantity: Tmax (min)
Numeric only. Scale: min

Report measured Tmax; entry is `CCCc1c(-c2ccccc2)nn(-c2ccccn2)c1O`
14

* * *

Test: Pharmacokinetics after IV and oral administration to rats
Type: in vivo
Settings: rat, in vivo, oral 10 mg/kg
quantity: half-life (h)
Numeric only. Scale: h

Report measured half-life; entry is `Oc1cc(-c2ccccc2)nn1-c1ccccn1`
3.3

* * *

Experiment: Pharmacokinetics after IV and oral administration to rats
Assay type: in vivo
Details: rat, in vivo, oral 10 mg/kg
quantity: Tmax (min)
Numeric only. Scale: min

Report measured Tmax; entry is `Oc1cc(-c2ccccc2)nn1-c1ccccn1`
6.12

* * *

Molecular target: human Nox1 (Homo sapiens, UniProt Q9Y5S8)
Sequence (Q9Y5S8 1-564): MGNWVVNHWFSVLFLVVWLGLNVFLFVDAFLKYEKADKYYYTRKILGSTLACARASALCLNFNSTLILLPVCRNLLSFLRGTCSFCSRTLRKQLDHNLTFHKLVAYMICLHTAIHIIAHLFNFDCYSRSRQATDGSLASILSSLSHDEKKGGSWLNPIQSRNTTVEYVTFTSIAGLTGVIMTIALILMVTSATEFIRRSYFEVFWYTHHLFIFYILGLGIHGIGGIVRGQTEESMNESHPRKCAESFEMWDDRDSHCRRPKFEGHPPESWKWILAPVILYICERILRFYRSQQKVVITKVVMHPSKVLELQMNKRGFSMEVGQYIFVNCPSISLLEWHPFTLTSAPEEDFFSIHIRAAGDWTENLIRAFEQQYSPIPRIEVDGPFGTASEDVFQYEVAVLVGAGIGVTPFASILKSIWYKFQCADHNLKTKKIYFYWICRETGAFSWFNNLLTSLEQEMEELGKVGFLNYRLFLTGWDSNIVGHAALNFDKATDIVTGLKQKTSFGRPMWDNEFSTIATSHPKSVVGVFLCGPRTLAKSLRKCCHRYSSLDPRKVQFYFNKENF
quantity: pKi
// pKi is dimensionless: -log10 of concentration (M)

Provide the reported pKi (system: human Nox1 (Homo sapiens, UniProt Q9Y5S8)) for `Oc1cc(-c2ccccc2)nn1-c1ccccn1`
5.84

FYI, the data here is from paper PMC4792161.
